Each entry below carries its recorded MIC K. pneumoniae ATCC 13833.
Tested on: K. pneumoniae ATCC 13833
test_protocol: microbe, parasite or virus in culture
test_context: ATCC 13833, 18 h
Where a SMILES comes first, the peptide text is derived from it. Bridges are numbered along the chain shown (N, C = ends). [ ]: non-standard residue; d: D form. The star is where a group is joined. Benzoyl(3-Ph) = O=C(c1cccc(-c2ccccc2)c1)*; Hexanoyl(6-Ph) = O=C(CCCCCc1ccccc1)*; dDab = NCC[C@@H](N)C(=O)O; Octanoyl = CCCCCCCC(=O)*; Orn = NCCC[C@H](N)C(=O)O; Dab = NCC[C@H](N)C(=O)O
Give your result in µg/mL as a bare value.

compound="CCCCCCCC(=O)N[C@H](C(=O)N[C@@H](CCCN)C(=O)N[C@H]1CCNC(=O)[C@H]([C@@H](C)O)NC(=O)[C@H](CCN)NC(=O)[C@H](CCN)NC(=O)[C@H](CC(C)C)NC(=O)[C@@H](Cc2ccccc2)NC(=O)[C@H](CCN)NC1=O)[C@@H](C)O [Compound 40] (Octanoyl-T[Orn][Dab][Dab][dF]L[Dab][Dab]T; lactam 3-C)" value_units=µg/mL recorded_result=8
compound="CCCCCCCC(=O)N[C@H](C(=O)N[C@H](CCN)C(=O)N[C@H]1CCNC(=O)[C@H]([C@@H](C)O)NC(=O)[C@H](CCN)NC(=O)[C@H](CCN)NC(=O)[C@H](CC(C)C)NC(=O)[C@@H](Cc2ccccc2)NC(=O)[C@H](CCN)NC1=O)[C@@H](C)O [Compound 21] (Octanoyl-T[dDab][Dab][Dab][dF]L[Dab][Dab]T; lactam 3-C)" value_units=µg/mL recorded_result=4
compound="CC(C)C[C@@H]1NC(=O)[C@@H](Cc2ccccc2)NC(=O)[C@H](CCN)NC(=O)[C@@H](NC(=O)[C@@H](CCN)NC(=O)[C@@H](NC(=O)c2cccc(-c3ccccc3)c2)[C@@H](C)O)CCNC(=O)[C@H]([C@@H](C)O)NC(=O)[C@H](CCN)NC(=O)[C@H](CCN)NC1=O [Compound 27] ({Benzoyl(3-Ph)}-T[dDab][Dab][Dab][dF]L[Dab][Dab]T; lactam 3-C)" value_units=µg/mL recorded_result=32
compound="CC(C)C[C@@H]1NC(=O)[C@@H](Cc2ccccc2)NC(=O)[C@H](CCN)NC(=O)[C@@H](NC(=O)[C@H](CCN)NC(=O)[C@@H](NC(=O)CCCCCc2ccccc2)[C@@H](C)O)CCNC(=O)[C@H]([C@@H](C)O)NC(=O)[C@H](CCN)NC(=O)[C@H](CCN)NC1=O [Compound 13] ({Hexanoyl(6-Ph)}-T[Dab][Dab][Dab][dF]L[Dab][Dab]T; lactam 3-C)" value_units=µg/mL recorded_result=8

Exercise: Give MIC K. pneumoniae ATCC 13833 only, for CCCCCCCC(=O)N[C@@H](CCN)C(=O)N[C@H](C(=O)NCC(=O)N[C@H]1CCNC(=O)[C@H]([C@@H](C)O)NC(=O)[C@H](CCN)NC(=O)[C@H](CCN)NC(=O)[C@H](CC(C)C)NC(=O)[C@@H](Cc2ccccc2)NC(=O)[C@H](CCN)NC1=O)[C@@H](C)O [Compound 50] (Octanoyl-[Dab]TG[Dab][Dab][dF]L[Dab][Dab]T; lactam 4-C) , using K. pneumoniae ATCC 13833 data.
Solution: 0.5

* * *

test_protocol: in vitro
test_context: human
Where a SMILES comes first, the peptide text is derived from it. Bridges are numbered along the chain shown (N, C = ends). [ ]: non-standard residue; d: D form. The star is where a group is joined. Isonicotinoyl(2-Ph) = O=C(c1ccnc(-c2ccccc2)c1)*; dOrn = NCCC[C@@H](N)C(=O)O; dDab = NCC[C@@H](N)C(=O)O; Octanoyl = CCCCCCCC(=O)*; Dab = NCC[C@H](N)C(=O)O
measurement_type: CC50 at 24 h

compound="CCCCCCCC(=O)N[C@H](C(=O)N[C@@H](CCN)C(=O)N[C@@H]1CCNC(=O)[C@H]([C@@H](C)O)NC(=O)[C@H](CCN)NC(=O)[C@H](CCN)NC(=O)[C@H](CC(C)C)NC(=O)[C@@H](Cc2ccccc2)NC(=O)[C@H](CCN)NC1=O)[C@@H](C)O [Compound 19] (Octanoyl-T[Dab][dDab][Dab][dF]L[Dab][Dab]T; lactam 3-C)" recorded_result="> 300 µM"

Exercise: Kindly indicate its recorded CC50 at 24 h. Item: CCCCCCCC(=O)N[C@H](C(=O)N[C@@H](Cc1c[nH]c2ccccc12)C(=O)N[C@H]1CCNC(=O)[C@H]([C@@H](C)O)NC(=O)[C@H](CCN)NC(=O)[C@H](CCN)NC(=O)[C@H](CC(C)C)NC(=O)[C@@H](Cc2ccccc2)NC(=O)[C@H](CCN)NC1=O)[C@@H](C)O [Compound 46] (Octanoyl-TW[Dab][Dab][dF]L[Dab][Dab]T; lactam 3-C)
Solution: > 300 µM

Exercise: Kindly indicate its recorded CC50 at 24 h. Item: CCCCCCCC(=O)N[C@H](C(=O)N[C@H](CCCN)C(=O)N[C@H]1CCNC(=O)[C@H]([C@@H](C)O)NC(=O)[C@H](CCN)NC(=O)[C@H](CCN)NC(=O)[C@H](CC(C)C)NC(=O)[C@@H](Cc2ccccc2)NC(=O)[C@H](CCN)NC1=O)[C@@H](C)O [Compound 41] (Octanoyl-T[dOrn][Dab][Dab][dF]L[Dab][Dab]T; lactam 3-C)
Solution: > 300 µM

Exercise: Kindly indicate its recorded CC50 at 24 h. Item: CCCCCCCC(=O)N[C@@H](CCN)C(=O)N[C@H](C(=O)N[C@@H](CCN)C(=O)N[C@H]1CCNC(=O)[C@H]([C@@H](C)O)NC(=O)[C@H](CCN)NC(=O)[C@H](CCN)NC(=O)[C@H](CC(C)C)NC(=O)[C@@H](Cc2ccccc2)NC(=O)[C@H](CCN)NC1=O)[C@@H](C)O [PmxB3, polymyxin B3, reference compound] (Octanoyl-[Dab]T[Dab][Dab][Dab][dF]L[Dab][Dab]T; lactam 4-C)
Solution: > 300 µM

Exercise: Kindly indicate its recorded CC50 at 24 h. Item: CCCCCCCC(=O)N[C@H](C(=O)N[C@@H](CCCNC(=N)N)C(=O)N[C@H]1CCNC(=O)[C@H]([C@@H](C)O)NC(=O)[C@H](CCN)NC(=O)[C@H](CCN)NC(=O)[C@H](CC(C)C)NC(=O)[C@@H](Cc2ccccc2)NC(=O)[C@H](CCN)NC1=O)[C@@H](C)O [Compound 45] (Octanoyl-TR[Dab][Dab][dF]L[Dab][Dab]T; lactam 3-C)
Solution: > 300 µM

Exercise: Kindly indicate its recorded CC50 at 24 h. Item: CC(C)C[C@@H]1NC(=O)[C@@H](Cc2ccccc2)NC(=O)[C@H](CCN)NC(=O)[C@@H](NC(=O)[C@H](CCN)NC(=O)[C@@H](NC(=O)c2ccnc(-c3ccccc3)c2)[C@@H](C)O)CCNC(=O)[C@H]([C@@H](C)O)NC(=O)[C@H](CCN)NC(=O)[C@H](CCN)NC1=O [Compound 10] ({Isonicotinoyl(2-Ph)}-T[Dab][Dab][Dab][dF]L[Dab][Dab]T; lactam 3-C)
Solution: > 300 µM

* * *

Each entry below carries its recorded MIC K. pneumoniae ATCC 13833.
Test system: K. pneumoniae ATCC 13833
test_protocol: microbe, parasite or virus in culture
test_context: ATCC 13833, 18 h
Where a SMILES comes first, the peptide text is derived from it. Bridges are numbered along the chain shown (N, C = ends). [ ]: non-standard residue; d: D form. The star is where a group is joined. dDab = NCC[C@@H](N)C(=O)O; hSer = N[C@@H](CCO)C(=O)O; Octanoyl = CCCCCCCC(=O)*; Dab = NCC[C@H](N)C(=O)O

compound="CCCCCCCC(=O)N[C@H](C(=O)N[C@@H](Cc1c[nH]c2ccccc12)C(=O)N[C@H]1CCNC(=O)[C@H]([C@@H](C)O)NC(=O)[C@H](CCN)NC(=O)[C@H](CCN)NC(=O)[C@H](CC(C)C)NC(=O)[C@@H](Cc2ccccc2)NC(=O)[C@H](CCN)NC1=O)[C@@H](C)O [Compound 46] (Octanoyl-TW[Dab][Dab][dF]L[Dab][Dab]T; lactam 3-C)" recorded_result=">32 µg/mL"
compound="CCCCCCCC(=O)N[C@H](C(=O)NCC(=O)N[C@H]1CCNC(=O)[C@H]([C@@H](C)O)NC(=O)[C@H](CCN)NC(=O)[C@H](CCN)NC(=O)[C@H](CC(C)C)NC(=O)[C@@H](Cc2ccccc2)NC(=O)[C@H](CCN)NC1=O)[C@@H](C)O [Compound 49] (Octanoyl-TG[Dab][Dab][dF]L[Dab][Dab]T; lactam 3-C)" recorded_result=">32 µg/mL"

Exercise: Kindly indicate its recorded MIC K. pneumoniae ATCC 13833. Item: CCCCCCCC(=O)N[C@@H](CC(N)=O)C(=O)N[C@H](CCN)C(=O)N[C@H]1CCNC(=O)[C@H]([C@@H](C)O)NC(=O)[C@H](CCN)NC(=O)[C@H](CCN)NC(=O)[C@H](CC(C)C)NC(=O)[C@@H](Cc2ccccc2)NC(=O)[C@H](CCN)NC1=O [Compound 28] (Octanoyl-N[dDab][Dab][Dab][dF]L[Dab][Dab]T; lactam 3-C)
Solution: >32 µg/mL

Exercise: Kindly indicate its recorded MIC K. pneumoniae ATCC 13833. Item: CCCCCCCC(=O)N[C@H](C(=O)N[C@@H](CC(N)=O)C(=O)N[C@H]1CCNC(=O)[C@H]([C@@H](C)O)NC(=O)[C@H](CCN)NC(=O)[C@H](CCN)NC(=O)[C@H](CC(C)C)NC(=O)[C@@H](Cc2ccccc2)NC(=O)[C@H](CCN)NC1=O)[C@@H](C)O [Compound 38] (Octanoyl-TN[Dab][Dab][dF]L[Dab][Dab]T; lactam 3-C)
Solution: >32 µg/mL

Exercise: Kindly indicate its recorded MIC K. pneumoniae ATCC 13833. Item: CCCCCCCC(=O)N[C@H](C(=O)N[C@@H](Cc1c[nH]cn1)C(=O)N[C@H]1CCNC(=O)[C@H]([C@@H](C)O)NC(=O)[C@H](CCN)NC(=O)[C@H](CCN)NC(=O)[C@H](CC(C)C)NC(=O)[C@@H](Cc2ccccc2)NC(=O)[C@H](CCN)NC1=O)[C@@H](C)O [Compound 47] (Octanoyl-TH[Dab][Dab][dF]L[Dab][Dab]T; lactam 3-C)
Solution: >32 µg/mL

Exercise: Kindly indicate its recorded MIC K. pneumoniae ATCC 13833. Item: CCCCCCCC(=O)N[C@H](C(=O)N[C@@H](CCO)C(=O)N[C@H]1CCNC(=O)[C@H]([C@@H](C)O)NC(=O)[C@H](CCN)NC(=O)[C@H](CCN)NC(=O)[C@H](CC(C)C)NC(=O)[C@@H](Cc2ccccc2)NC(=O)[C@H](CCN)NC1=O)[C@@H](C)O [Compound 37] (Octanoyl-T[hSer][Dab][Dab][dF]L[Dab][Dab]T; lactam 3-C)
Solution: >32 µg/mL
